experimental target: human CLDN18.2 (human) (UniProt P56856)
test details: cell ELISA, hCLDN18.2+ cells
Simple rule here: EC50 less than 0.2 nM is yes (1), otherwise no (0).

binder: Ab30 (antibody, V domains shown) VH: QVQLVQSGAEVKKPGSSVKVSCKASGYAFSNYLIEWVRQAPGQGLEWMGLINPGSGGTNYNEKFKGKVTITADKSTSTAYMELSSLRSEDTAVYYCARVYYGNTFAYWGQGTLVTVSS VL: DIVMTQSPDSLAVSLGERATISCKSSQSLLNSGNQKNYLTWYQQKPGQPPKLLIYWASTRESGVPDRFSGSGSGTDFTLTISSLQAEDVAVYYCQNDYFYPFTFGQGTKLEIK
class name: no (0)
--
binder: Ab22 (antibody, V domains shown) VH: QVQLVQSGAEVKKPGSSVKVSCKASGYAFSNYLIEWVRQAPGQGLEWMGLINPGSGGTNYNEKFKGKVTITADKSTSTAYMELSSLRSEDTAVYYCARVYYGNTFAYWGQGTLVTVSS VL: DIVMTQSPDSLAVSLGERATINCKSSQSLLTSGNNKNYLAWYQQKPGQPPKLLIYWASTRESGVPDRFSGSGSGTDFTLTISSLQAEDVAVYYCQNDYFYPFTFGQGTKLEIK
class name: no (0)
--
binder: Ref (control anti-human CLDN18.2 antibody) (antibody, INN chains, looked up, V domains shown) VH: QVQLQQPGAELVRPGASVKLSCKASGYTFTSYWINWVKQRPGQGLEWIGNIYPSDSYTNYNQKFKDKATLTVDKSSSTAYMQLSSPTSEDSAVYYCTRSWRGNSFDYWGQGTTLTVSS VL: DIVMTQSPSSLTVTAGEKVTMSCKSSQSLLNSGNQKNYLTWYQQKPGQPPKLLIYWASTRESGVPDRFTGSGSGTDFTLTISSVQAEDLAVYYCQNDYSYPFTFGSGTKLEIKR
class name: no (0)
--
binder: Ab28 (antibody, V domains shown) VH: QVQLVQSGAEVKKPGSSVKVSCKASGYAFSNYLIEWVRQAPGQGLEWMGLINPGSGGTNYNEKFKGKVTITADKSTSTAYMELSSLRSEDTAVYYCARVYYGNSFAYWGQGTLVTVSS VL: DIVMTQSPDSLAVSLGERATINCKSSQSLLNTGNNKNYLAWYQQKPGQPPKLLIYWASTRESGVPDRFSGSGSGTDFTLTISSLQAEDVAVYYCQNDYFYPFTFGQGTKLEIK
class name: yes (1)
--
binder: Ab34 (antibody, V domains shown) VH: QVQLVQSGAEVKKPGSSVKVSCKASGYAFSNYLIEWVRQAPGQGLEWMGLINPGSGGTNYNEKFKGKVTITADKSTSTAYMELSSLRSEDTAVYYCARVYYGNTFAYWGQGTLVTVSS VL: DIVMTQSPDSLAVSLGERATISCKSSQSLLNSGNNKNYLAWYQQKPGQPPKLLIYWASTRESGVPDRFSGSGSGTDFTLTISSLQAEDVAVYYCQNDYFYPFTFGQGTKLEIK
class name: yes (1)
